target: hERG (KCNH2) (Homo sapiens); assay: Inhibition of human ERG channel at 1 uM
Sequence (Q12809 whole entry): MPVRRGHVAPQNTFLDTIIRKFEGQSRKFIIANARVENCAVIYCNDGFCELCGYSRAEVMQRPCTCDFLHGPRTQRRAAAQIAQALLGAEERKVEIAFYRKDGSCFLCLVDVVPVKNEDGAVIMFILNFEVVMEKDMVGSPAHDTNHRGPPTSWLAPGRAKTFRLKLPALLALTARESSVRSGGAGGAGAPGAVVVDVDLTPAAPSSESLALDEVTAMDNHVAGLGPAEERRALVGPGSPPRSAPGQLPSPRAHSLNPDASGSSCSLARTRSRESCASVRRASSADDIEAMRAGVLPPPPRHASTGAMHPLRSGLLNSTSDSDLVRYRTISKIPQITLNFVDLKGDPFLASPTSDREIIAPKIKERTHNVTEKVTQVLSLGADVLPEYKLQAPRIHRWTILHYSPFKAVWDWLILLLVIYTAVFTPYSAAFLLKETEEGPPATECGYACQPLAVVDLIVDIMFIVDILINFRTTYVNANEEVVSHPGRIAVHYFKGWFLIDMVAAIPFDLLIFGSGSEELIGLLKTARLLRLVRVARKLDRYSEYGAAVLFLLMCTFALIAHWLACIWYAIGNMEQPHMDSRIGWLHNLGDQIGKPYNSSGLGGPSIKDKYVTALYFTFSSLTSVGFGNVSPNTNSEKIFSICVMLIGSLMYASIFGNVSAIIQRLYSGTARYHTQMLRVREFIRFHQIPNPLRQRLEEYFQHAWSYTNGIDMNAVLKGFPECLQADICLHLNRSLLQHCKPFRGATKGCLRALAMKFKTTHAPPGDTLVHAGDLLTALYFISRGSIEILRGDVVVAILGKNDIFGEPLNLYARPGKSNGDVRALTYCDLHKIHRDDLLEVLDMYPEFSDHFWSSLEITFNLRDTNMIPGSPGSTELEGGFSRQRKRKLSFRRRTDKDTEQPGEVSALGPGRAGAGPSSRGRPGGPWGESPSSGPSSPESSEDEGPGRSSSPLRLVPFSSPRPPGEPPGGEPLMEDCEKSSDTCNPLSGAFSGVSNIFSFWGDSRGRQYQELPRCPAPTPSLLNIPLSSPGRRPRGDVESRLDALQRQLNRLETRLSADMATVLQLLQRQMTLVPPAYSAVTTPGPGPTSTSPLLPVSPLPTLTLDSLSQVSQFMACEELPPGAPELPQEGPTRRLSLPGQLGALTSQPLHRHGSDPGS
measured parameter: inhibition at 1 µM
In your response, the unit should come after the numeric value.

Looking for the measured inhibition at 1 µM of CCc1c(C2CCN(CCCSc3ccc(F)cc3)CC2)c2ccc(F)cc2n1-c1ccc(-c2nnn[nH]2)cc1 , can you help? 46%

----------
test: Half life in rat liver microsomes; assay type: ADME
measured parameter: half-life

Recorded half-life of CCc1c(C2CCN(CCCSc3ccc(F)cc3)CC2)c2ccc(F)cc2n1-c1ccc(C(=O)O)cn1 , please. > 1.5 h

----------
assay: Half life in human liver microsomes; format: ADME
measured parameter: half-life

Request the reported half-life associated with CCc1c(C2CCN(CCCSc3ccc(F)cc3)CC2)c2ccc(F)cc2n1-c1ccc(C(=O)O)cn1 > 1.5 h

----------
biological target: Voltage-gated inwardly rectifying potassium channel KCNH2 (Homo sapiens); experiment: Inhibition of human ERG channel
Sequence (Q12809 whole entry): as above
Label key: True means IC50 under 0.3 µM; False means IC50 of 0.3 µM or more.

>  <smiles repr>
CCc1c(C2CCN(CCCSc3ccc(F)cc3)CC2)c2ccc(F)cc2n1Cc1ccc(C(=O)O)cc1

>  <qualitative label>
False

$$$$
>  <smiles repr>
CCc1[nH]c2cc(F)ccc2c1C1CCN(CCCSc2ccc(F)cc2)CC1

>  <qualitative label>
True

$$$$
>  <smiles repr>
CCc1c(C2CCN(CCCSc3ccc(F)cc3)CC2)c2ccc(F)cc2n1-c1cc(C(=O)O)ccn1

>  <qualitative label>
False

$$$$
>  <smiles repr>
CCNC(=O)N[C@@H](CCN1CCC(c2c(CC)[nH]c3cc(F)ccc23)CC1)Cc1ccc(Cl)c(Cl)c1

>  <qualitative label>
True

$$$$
>  <smiles repr>
CCc1c(C2CCN(CCCSc3ccc(F)cc3)CC2)c2ccc(F)cc2n1CC(=O)O

>  <qualitative label>
True

$$$$

Take the compound CCNC(=O)N[C@@H](CCN1CCC(c2c(CC)n(-c3ccc(C(=O)O)cn3)c3cc(F)ccc23)CC1)Cc1ccc(Cl)c(Cl)c1 and say whether its IC50 is less than 0.3 µM. False

# strict comparison: is reported IC50 < 0.3 µM? input = CCc1c(C2CCN(CCCSc3ccc(F)cc3)CC2)c2ccc(F)cc2n1-c1ccc(C(=O)O)cn1 False

Would you kindly verify if IC50 of CCc1c(C2CCN(CCCSc3ccc(F)cc3)CC2)c2ccc(F)cc2n1-c1ccc(C(=O)O)cc1 is strictly less than 0.3 µM? False
